- ASSAY OVERVIEW: Pharmacokinetic study in mice, plasma concentrations by LC-MS/MS
- EXPERIMENTAL CONTEXT: mouse, in vivo, iv, 1 mg/kg
In this section we review reported half-life values for a set of molecules.
MEASUREMENT TYPE: half-life (min)

molecule="CC[C@@]1(O)C(=O)OCc2c1cc1n(c2=O)Cc2c-1c(=O)c1cc(F)ccc1n2CCN(C)C1CCCC1 [Example 117]" measurement_type=half-life test_value=14.1
molecule="CC[C@@]1(O)C(=O)OCc2c1cc1n(c2=O)Cc2c-1nc1cc(F)c(C)c3c1c2[C@@H](NC(=O)CO)CC3 [DXd]" measurement_type=half-life test_value=9.3
molecule="CC[C@@]1(O)C(=O)OCc2c1cc1n(c2=O)Cc2c-1c(=O)c1cc(F)ccc1n2CCN(C)C1CC1 [Example 97]" measurement_type=half-life test_value=28.9
